The reported measurements were obtained from PubChem BioAssay (NCI).

Each record here notes measured TGI.
# System: NCI-H226 lung
# Assay protocol: NCI tumour cell line growth inhibition, 48 h

In the examples that follow, each entry is paired with its recorded TGI.
Molecule | TGI
COc1ccc(NC(=O)CCc2cc(C(C)(C)C)n[nH]2)cc1 | > 100 µM
C1CCN2CC3CCCN4CCCC(C2C1)C34 (configuration not stated) | > 100 µM
COC(=O)[C@@H]1Cc2cc(O)c(O)cc2C2(CCN(C)CC2)O1 | > 10 µM
CCN(CC)C(=S)SS(=O)(=O)c1ccccc1[N+](=O)[O-] | > 93.8 µM
Cc1cc2c(cc1C)C(=O)/C(=N/Nc1ccc(F)cc1)CCO2 | > 100 µM
CC(=O)Nc1ccc2cc3[nH]c4cc(NC(C)=O)ccc4c3nc2c1 | > 100 µM
CN1C(=O)C23CCCCC2CC1(c1ccccc1)S3 (configuration not stated) | > 100 µM
CN(C)c1ccc(C2ON=C(c3ccccc3)N2C23CC4CC(CC(C4)C2)C3)cc1 (configuration not stated) | > 10 µM

For record `O=C(O)c1ccc(Nc2nc3cc(C(F)(F)F)ccc3nc2-c2ccccc2)cc1` the listed TGI is 69.6 µM

Value of measured TGI for the entry `CCN(CC)COC(=S)S` : > 100 µM

GET /value?item= `O=c1nc2sc3ccc4ccccc4c3n2[nH]c1=O` &field=TGI returns > 100 µM

response.value for `CCCCN=C1OCc2[nH][nH]c(=O)c21` (field: TGI) = > 100 µM
